// data source = BindingDB's records for doi:10.1021/jm00028a001

Can you tell me IC50 for the items I'm about to list?
Molecular target: Dimer of Gag-Pol polyprotein [489-587] (Human immunodeficiency virus 1, UniProt P12497)
Construct: 489-587
Assay: Protease Inhibition Assay
Details: pH 5.5; 30 °C
// units = nM; emit number, no label

Form field: reported IC50 of `CC(C)(C)NC(=O)[C@@H]1CCCCN1C[C@@H](O)[C@@H]1Cc2ccc(cc2)OCCCC(=O)N[C@@H](CC(N)=O)C(=O)N1`
0.6

// repeat for CC(C)C[C@@]1(C2C=N[C@@](Cc3ccccc3)(C[C@H](O)[C@H](Cc3ccccc3)NC(=O)O[C@@H]3CCOC3)C2=O)N=CC([C@@H](Cc2ccccc2)C(N)=O)C1=O (stereo partly drawn) and report
1.3

// repeat for CCC(C)[C@@H]1NC(=O)[C@@H](NC[C@@H](O)[C@H](Cc2ccc(O)cc2)NC(=O)[C@H](C(C)C)N2CCCC2=O)Cc2ccc(cc2)OCCCNC1=O (stereo partly drawn) and report
10
